Origin of values: the supplement of paper PMC10567573

B1: DCAF4 (parent)
chain: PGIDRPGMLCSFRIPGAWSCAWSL

# Variants of: B1
# assaySummary: protein stability index of a GFP-peptide fusion (GPS, HEK-293T) (PSI 1-6); higher = more stable;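 further: lentivirally expressed fusions sorted by FACS into six bins by GFP to DsRed ratio, PSI derived from sequencing read proportions per bin multiplied by bin number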
# conditions: c terminus: a fixed tail appended
# binarize protein stability index: threshold 2 inclusive, high side Yes, low side No

mutationList: W22H
class: No
//
mutationList: L9R
class: Yes
//
mutationList: M8I
class: Yes
//
mutationList: A17S
class: Yes
//
mutationList: W18P
class: Yes
//
mutationList: S19Q
class: Yes
//
mutationList: I14E
class: No
//
mutationList: P6N
class: Yes
//
mutationList: P6E
class: No
//
mutationList: A21Y
class: Yes
//
mutationList: P1Y
class: Yes
//
mutationList: L24S
class: Yes
//
mutationList: W18L
class: Yes
//
mutationList: C10P
class: Yes
//
mutationList: I3W
class: Yes
//
mutationList: P15F
class: Yes
//
mutationList: M8K
class: Yes
//
mutationList: L24F
class: Yes
//
mutationList: G7V
class: Yes
//
mutationList: A21M
class: Yes
//
mutationList: F12C
class: Yes
//
mutationList: A21L
class: Yes
//
mutationList: F12S
class: Yes
//
mutationList: W22F
class: Yes
//
mutationList: P6A
class: Yes
//
mutationList: G2M
class: Yes
//
mutationList: I14S
class: Yes
//
mutationList: I14D
class: Yes
//
mutationList: W18T
class: Yes
//
mutationList: C10A
class: No
//
mutationList: C10Y
class: Yes
//
mutationList: G2T
class: Yes
//
mutationList: A21D
class: Yes
//
mutationList: R5Q
class: Yes
//
mutationList: S19R
class: Yes
//
mutationList: G2L
class: Yes
//
mutationList: S11L
class: Yes
//
mutationList: S23V
class: Yes
//
mutationList: I3F
class: Yes
//
mutationList: G7Y
class: Yes
//
mutationList: S23E
class: Yes
//
mutationList: P1N
class: Yes
//
mutationList: W22D
class: No
//
mutationList: S23G
class: Yes
//
mutationList: A21V
class: No
//
mutationList: S23P
class: Yes
//
mutationList: D4M
class: No
//
mutationList: F12P
class: Yes
//
mutationList: W22C
class: No
//
mutationList: C10H
class: Yes
//
mutationList: C20E
class: No
//
mutationList: L9H
class: Yes
//
mutationList: W18A
class: Yes
//
mutationList: A21P
class: Yes
//
mutationList: C10S
class: Yes
//
mutationList: A21T
class: Yes
//
mutationList: L9G
class: No
//
mutationList: A17D
class: Yes
//
mutationList: L24K
class: Yes
//
mutationList: M8H
class: Yes
//
mutationList: W18H
class: Yes
//
mutationList: C20S
class: Yes
//
mutationList: W22N
class: No
//
mutationList: W22M
class: Yes
//
mutationList: P15N
class: Yes
//
mutationList: L24Q
class: No
//
mutationList: S19D
class: Yes
//
mutationList: C10Q
class: No
//
mutationList: A17F
class: Yes
//
mutationList: G16F
class: Yes
//
mutationList: M8A
class: Yes
//
mutationList: I14Y
class: Yes
//
mutationList: R13S
class: Yes
